# System: full length human vWF (SEQ ID NO 7)
# Assay Comment: dot blot KD determination and extent of binding, full length human vWF;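 further: dot blot binding of aptamers to full length human vWF across a protein titration, incubated 30 minutes at room temperature in 1x DPBS with BSA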
# Run Parameters: Phase 1 modification; extent of aptamer binding at 100 nM full length human vWF
Oligonucleotides are written 5' to 3', each unit as a sugar letter and its base; * is a phosphorothioate linkage, no mark a phosphodiester; rarer units and linkages stand in square brackets, end groups in braces. Plain capitals give the bases only. [invdT] = inverted (3'-3') thymidine; d = 2'-deoxy (DNA); m = 2'-O-methyl
Readings of % binding @ 100 nM vWF for the listed substances
Readout Label: % binding @ 100 nM vWF (%)

| Substance | Readout Label | Unit Abbrev | Endpoint Value |
| --- | --- | --- | --- |
| ARC1208: ARC1172 with one residue replaced by 2'-O methyl residue (DNA dGdGdCdGdTdGdCdAdGdTdGdCdCdTmUdCdGdGdCdCdGdTdGdCdGdGdTdGdCdCdTdCdCdGdTdCdAdCdGdCdC[invdT]; aptamer) | % binding @ 100 nM vWF | % | 45 |
| ARC1226: ARC1172 with one residue replaced by 2'-O methyl residue (dGdGdCdGdTdGdCdAdGdTdGdCdCdTdTdCdGdGdCdCdGdTdGdCdGdGdTdGdCdCdTdCmCdGdTdCdAdCdGdCdC[invdT]; aptamer) | % binding @ 100 nM vWF | % | 25 |
| ARC1219: ARC1172 with one residue replaced by 2'-O methyl residue (DNA dGdGdCdGdTdGdCdAdGdTdGdCdCdTdTdCdGdGdCdCdGdTdGdCdGmGdTdGdCdCdTdCdCdGdTdCdAdCdGdCdC[invdT]; aptamer) | % binding @ 100 nM vWF | % | 33 |
| ARC1205: ARC1172 with one residue replaced by 2'-O methyl residue (DNA dGdGdCdGdTdGdCdAdGdTdGmCdCdTdTdCdGdGdCdCdGdTdGdCdGdGdTdGdCdCdTdCdCdGdTdCdAdCdGdCdC[invdT]; aptamer) | % binding @ 100 nM vWF | % | 50 |
